Target: GluA2Qflip (Rattus norvegicus, UniProt P19491)
Construct: expressed in transfected cells; host or cells: HEK-293S
Sequence (P19491 22-883 isoform P19491-2): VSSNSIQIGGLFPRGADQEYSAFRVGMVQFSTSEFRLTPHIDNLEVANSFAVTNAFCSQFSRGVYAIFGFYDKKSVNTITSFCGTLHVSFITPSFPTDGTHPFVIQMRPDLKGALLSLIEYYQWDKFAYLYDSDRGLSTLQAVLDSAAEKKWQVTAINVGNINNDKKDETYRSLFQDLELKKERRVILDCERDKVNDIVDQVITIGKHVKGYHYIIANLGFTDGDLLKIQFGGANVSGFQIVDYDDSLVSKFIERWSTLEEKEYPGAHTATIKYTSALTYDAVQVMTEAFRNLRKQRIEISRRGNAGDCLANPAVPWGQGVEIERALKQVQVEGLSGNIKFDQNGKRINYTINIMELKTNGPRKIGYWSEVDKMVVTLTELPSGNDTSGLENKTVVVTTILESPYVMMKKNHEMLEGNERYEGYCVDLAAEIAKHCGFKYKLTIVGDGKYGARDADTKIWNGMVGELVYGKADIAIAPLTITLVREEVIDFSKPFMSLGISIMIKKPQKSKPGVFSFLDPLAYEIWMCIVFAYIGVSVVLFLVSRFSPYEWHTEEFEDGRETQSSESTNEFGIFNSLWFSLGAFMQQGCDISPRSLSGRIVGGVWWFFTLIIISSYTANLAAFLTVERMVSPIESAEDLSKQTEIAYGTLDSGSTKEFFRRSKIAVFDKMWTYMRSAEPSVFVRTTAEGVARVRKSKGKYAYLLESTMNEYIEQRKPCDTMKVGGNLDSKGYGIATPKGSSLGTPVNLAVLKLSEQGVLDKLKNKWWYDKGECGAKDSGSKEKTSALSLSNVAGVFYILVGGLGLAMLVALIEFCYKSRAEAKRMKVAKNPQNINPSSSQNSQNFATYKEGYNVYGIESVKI
Assay: Homologous competitive binding assay (32P-labeled aptamer, membrane-bound receptor)
Conditions: open-channel conformation (1 mM kainate)
outcome.measure: pKd
Scale for pKd: -log10 of concentration given in mol/L; no unit attached.

stdin: Give pKd (GluA2Qflip (Rattus norvegicus, UniProt P19491)) of the following substance: AG56: 56-nucleotide truncated version of AG1407, RNA aptamer (GGGAGAUUGUGAAGCGUAGGCUCGAGUUUGUCCCGCGAGCCAAAGAUUCCAGACCC; RNA, backbone not given here)
stdout: 7.10

###

Molecular target: GluA2Qflip (Rattus norvegicus, UniProt P19491)
Construct: expressed in transfected cells; host or cells: HEK-293S
Experiment: Whole-cell current recording, GluA2Qflip in HEK-293 cells
Format: cell-based
Conditions: open-channel conformation of GluA2Qflip, 3 mM glutamate; read-out: inhibition constant
outcome.measure: pKi
Remember the convention: pKi equals -log10 of concentration in molar.

stdin: Dear colleague, I am looking for the recorded pKi of the following substance: AG56: 56-nucleotide truncated version of AG1407, RNA aptamer (GGGAGAUUGUGAAGCGUAGGCUCGAGUUUGUCCCGCGAGCCAAAGAUUCCAGACCC; RNA, backbone not given here)
stdout: 6.02
